Tested on: Galium (catchweed bedstraw, Galium aparine)
Assay: Test A postemergence
Format: in vivo
Conditions: Galium, post-emergence, 240 h, Postemergence, 500 g ai/ha; visual injury, 0 to 100 scale (0 no effect, 100 complete control), approx. 10 d; read-out: Plant response rating, Galium
Entries annotated with measured pest or weed control at 500 g/ha
Dear colleague, please return just the value in %, with no unit written.

Guide cases for pest or weed control at 500 g/ha, answers given:
CN1C[C@H](c2ccc(F)c(C#N)c2)[C@@H](C(=O)Nc2cccc(F)c2F)C1=O
60
CSc1ccccc1NC(=O)[C@H]1C(=O)N(C)C[C@@H]1c1ccc(C(F)(F)F)cc1
70
CN1C[C@H](c2ccc(C(F)(F)F)cc2)[C@@H](C(=O)Nc2cccc(F)c2C#N)C1=O
50
O=C1NC[C@H](c2cccc(C(F)(F)F)n2)[C@H]1C(=O)Nc1cccc(F)c1F
50

Continue with the compound presented below.
INPUT: Give the measured pest or weed control at 500 g/ha for CN1C[C@H](c2cccc(C(C)(F)F)c2)[C@@H](C(=O)Nc2ccc(F)cc2F)C1=O
OUTPUT: 60
